test system: HTLV-I; assay: Co-culture assay for HTLV-I, virus replication by p19 Gag ELISA; type: cell-based; conditions: 3 wks post infection; human PBMCs co-cultured with mitomycin C treated MT-2 cells; read-out: HTLV-I EC50
value type: EC50 (µM)

compound="C[C@H](Cn1cnc2c(N)ncnc21)OCP(=O)(O)O [Tenofovir, (R)-9-(2-phosphonylmethoxypropyl)adenine]" measurement_unit=µM experimental_result=10.3

====

test system: HTLV-I; assay: Co-culture assay for HTLV-I, virus replication by p19 Gag ELISA; assay type: cell-based; details: 2 wks post infection; human PBMCs co-cultured with mitomycin C treated MT-2 cells; read-out: HTLV-I EC50
pEC50: −log10 of the molar value.
value type: pEC50

compound="C[C@H](Cn1cnc2c(N)ncnc21)OCP(=O)(O)O [Tenofovir, (R)-9-(2-phosphonylmethoxypropyl)adenine]" experimental_result="< 4.60"

====

assay: Cell viability of infected PBMCs by trypan blue dye exclusion; type: cell-based, human; conditions: human; 2 wks post infection; infected PBMCs; read-out: HTLV-I TC50
CC50 at 2 weeks overview
value type: CC50 at 2 weeks

smiles_string=Cc1cn([C@H]2C[C@H](N=[N+]=[N-])[C@@H](CO)O2)c(=O)[nH]c1=O value_type="CC50 at 2 weeks" experimental_result="> 25 µM"
smiles_string=CCCCCCCCCCCCCCCCOCCCOP(=O)(O)CO[C@H](CO)Cn1ccc(N)nc1=O value_type="CC50 at 2 weeks" experimental_result="7.5 µM"
smiles_string=CCCCCCCCCCCCCCCCOCCCOP(=O)(O)CO[C@H](C)Cn1cnc2c(N)ncnc21 value_type="CC50 at 2 weeks" experimental_result="> 10 µM"
smiles_string=Nc1ccn(C[C@@H](CO)OCP(=O)(O)O)c(=O)n1 value_type="CC50 at 2 weeks" experimental_result="> 100 µM"

====

Assay: Cell viability of infected PBMCs by trypan blue dye exclusion
Format: cell-based, human
Details: human; 3 wks post infection; infected PBMCs; read-out: HTLV-I TC50
Description: Co-Culture for HTLV-I Replication: Cell cultures were incubated at 37° C./5% CO2 for four weeks. Cell viability and density was monitored by trypan blue dye exclusion test. Cell density was readjusted to 8×10^5 cells per mL on days 3, 7, 10, 14, 21 and 28. […] Anti-HTLV-I Evaluations: HDP-TFV K^+ salt and tenofovir were evaluated for HTLV-I inhibition in human PBMCs co-cultured with mitomycin C treated MT-2 cells at four concentrations of each compound. […]
Listed here are compounds together with their documented CC50 at 3 weeks.
value type: CC50 at 3 weeks (µM)

smiles_string=CCCCCCCCCCCCCCCCOCCCOP(=O)(O)CO[C@H](CO)Cn1ccc(N)nc1=O value_type="CC50 at 3 weeks" measurement_unit=µM reading_qualifier== experimental_result=3.2
smiles_string=CCCCCCCCCCCCCCCCOCCCOP(=O)(O)CO[C@H](C)Cn1cnc2c(N)ncnc21 value_type="CC50 at 3 weeks" measurement_unit=µM reading_qualifier== experimental_result=6.3
smiles_string=Cc1cn([C@H]2C[C@H](N=[N+]=[N-])[C@@H](CO)O2)c(=O)[nH]c1=O value_type="CC50 at 3 weeks" measurement_unit=µM reading_qualifier=> experimental_result=25
smiles_string=Nc1ccn(C[C@@H](CO)OCP(=O)(O)O)c(=O)n1 value_type="CC50 at 3 weeks" measurement_unit=µM reading_qualifier=> experimental_result=100

====

assay: Cell viability of infected PBMCs by trypan blue dye exclusion; type: cell-based, human; conditions: human; 4 wks post infection; infected PBMCs; read-out: HTLV-I TC50
value type: CC50 at 4 weeks (nM)

smiles_string=CCCCCCCCCCCCCCCCOCCCOP(=O)(O)CO[C@H](CO)Cn1ccc(N)nc1=O reading_qualifier== experimental_result=1400
smiles_string=Nc1ccn(C[C@@H](CO)OCP(=O)(O)O)c(=O)n1 reading_qualifier== experimental_result=80000
smiles_string=CCCCCCCCCCCCCCCCOCCCOP(=O)(O)CO[C@H](C)Cn1cnc2c(N)ncnc21 reading_qualifier== experimental_result=1000
smiles_string=Cc1cn([C@H]2C[C@H](N=[N+]=[N-])[C@@H](CO)O2)c(=O)[nH]c1=O reading_qualifier=> experimental_result=25000

====

system: infected PBMCs; assay: Cell viability of infected PBMCs by trypan blue dye exclusion; format: cell-based, human; settings: 2 wks post infection; infected PBMCs; read-out: HTLV-I TC50
value type: CC50

molecule="C[C@H](Cn1cnc2c(N)ncnc21)OCP(=O)(O)O [Tenofovir, (R)-9-(2-phosphonylmethoxypropyl)adenine]" value_type=CC50 experimental_result="> 25 µM"

====

tested on: infected PBMCs; assay: Cell viability of infected PBMCs by trypan blue dye exclusion; assay type: cell-based, human; settings: 4 wks post infection; infected PBMCs; read-out: HTLV-I TC50
value type: CC50

compound="C[C@H](Cn1cnc2c(N)ncnc21)OCP(=O)(O)O [Tenofovir, (R)-9-(2-phosphonylmethoxypropyl)adenine]" experimental_result="> 25 µM"

====

system: infected PBMCs; experiment: Cell viability of infected PBMCs by trypan blue dye exclusion; format: cell-based, human; conditions: 3 wks post infection; infected PBMCs; read-out: HTLV-I TC50
value type: CC50

compound="C[C@H](Cn1cnc2c(N)ncnc21)OCP(=O)(O)O [Tenofovir, (R)-9-(2-phosphonylmethoxypropyl)adenine]" value_type=CC50 experimental_result="> 25 µM"
